# Test Description: in vitro
# Format: cell-based
# Test Settings: human, neonatal fibroblasts (HDFn cells)
Where a SMILES comes first, the peptide text is derived from it. [ ]: non-standard residue; d: D form. Orn = NCCC[C@H](N)C(=O)O
Reported Endpoint: viability at 72 h, 5 µM (%)
One number for each entry, in %.

Ask: // query viability at 72 h, 5 µM value for entry CC[C@H](C)[C@H](NC(=O)[C@H](CCCN)NC(=O)[C@H](CCCN)NC(=O)[C@@H](NC(=O)[C@@H](NC(=O)[C@H](CCCN)NC(=O)[C@H](CCCN)NC(=O)[C@@H](NC(=O)[C@@H](NC(=O)[C@H](CCCN)NC(=O)[C@H](CCCN)NC(=O)[C@@H](NC(=O)[C@@H](NC(=O)CN)[C@@H](C)CC)[C@@H](C)CC)[C@@H](C)CC)[C@@H](C)CC)[C@@H](C)CC)[C@@H](C)CC)C(N)=O [GO, G(IIOO)3 I-NH2] (H-GII[Orn][Orn]II[Orn][Orn]II[Orn][Orn]I-NH2)
Reply: 85

Ref: patent US9745348B2
